The measurements presented in this section are drawn from a melting point compilation (Tetko et al.; mined from patent text by program, amines drawn as free bases though some values may be those of a salt).

// reported melting point per item
Result type: melting point

INSERT INTO measurements (compound, measured_result) VALUES
  ('CCCCCCCCCCCCCCCCSCC(CNS(=O)(=O)CCCCl)NC(C)=O (stereo not given)', '86 to 88 °C'),
  ('CCn1c(=O)c2c(nc(/C=C/c3ccc(OC)c(O)c3)n2C)n(CC)c1=O', '204 to 206 °C'),
  ('Cc1ccc(C=CC(=O)NCCCCN2CCN(C(c3ccccc3)c3ccccc3)CC2)cn1', '129 to 131 °C'),
  ('Clc1cc2c(cc1Cn1ccnc1-c1ccccc1)OCO2', '163 °C'),
  ('COc1c2c(c(OC(C)=O)c3c1C(=O)c1c(cc(OC(C)=O)c(C)c1OC(C)=O)C3=O)-c1c(cc3cnn(-c4ccccc4)c(=O)c3c1OC(C)=O)CC2', '273 °C'),
  ('Cc1cccc(C)c1-c1nc2ccccc2n2cncc12', '115 to 125 °C'),
  ('Cn1cc(C#N)c(Nc2ccc([N+](=O)[O-])cc2N)n1', '204 °C'),
  ('COC(=O)C1CC2=C(CO1)C(=O)c1cc3ccccc3c(OC(C)=O)c1C2=O (stereo not given)', '196 to 198 °C'),
  ('CC(C)(C)c1cc(-c2ccc(NC(=O)COCC(=O)O)cc2)cc(C(C)(C)C)c1O', '183 to 184 °C'),
  ('O=[N+]([O-])c1ccccc1N1CCCc2ccccc21', '69 to 71 °C'),
  ('Cc1nonc1-n1cc(C(=O)O)c(=O)c2cc(F)c(N3CC[C@H](N)C3)c(F)c21', '169 to 170 °C'),
  ('O=C(Nc1ccc2ccc(-c3ccc(Cl)c(Cl)c3)nc2n1)c1cccc(Br)c1', '176 to 178 °C'),
  ('CCOC(=O)C(NC(C)=O)C(=O)CCCCc1ccccc1 (stereo not given)', '54 to 55 °C'),
  ('Cn1cc(-c2cnc3[nH]c(=O)n(CC4CCOCC4)c3n2)cn1', '224 to 226 °C'),
  ('CC1(C2=CCC3C4CCC5CC(O)CCC5(C)C4C(O)CC23C)OCCO1 (stereo not given)', '214 to 218 °C'),
  ('C#CCOc1ccc(/C=C/C(=O)Nc2ccccc2C(=O)O)cc1OC', '191 to 193 °C'),
  ('O=C(c1ccc(-c2cc(-c3c[nH]nc3-c3ccccn3)ccn2)cc1)N1CCOCC1', '155 °C'),
  ('COc1cc(N)c(Cl)cc1C(=O)NC1CCN(CC2CCCCC2)CC1C (stereo not given)', '173 to 176 °C'),
  ('CC12CCC=CC1=CCC1C2CCC2(C)C(c3cccnc3)=CCC12 (stereo not given)', '110 to 112 °C'),
  ('COc1cccc(OCc2ccc(C(=O)N(C)C3CCCCC3)cc2)c1', '90.4 °C'),
  ('O=C(NCCN1CCCCC1)c1nc(NCC(c2ccccc2)c2ccccc2)c2nc[nH]c2n1', '222 °C'),
  ('CCc1cn2ccc(NC(=O)c3cc4cc(C(F)(F)F)cnc4n3Cc3cccc(F)c3)cc2n1', '264 to 265 °C'),
  ('CCN1CCCC1c1cccc(OC(=O)NC)c1 (stereo not given)', '67 to 69 °C'),
  ('CC(C)n1cc(-c2ccc(C=O)cc2)c2c(Cl)ncnc21', '138 to 140 °C'),
  ('C[C@@H]1CN(CCCn2c3ccc(O)cc3c3c4c(c(-c5c(Cl)cccc5Cl)cc32)C(=O)NC4=O)C[C@H](C)N1', '160 to 165 °C'),
  ('O=C(NC(c1ccccc1)c1ccccc1)c1c[nH]cn1', '201 to 202 °C'),
  ('CC1(C)C2CCC1(CCBr)CC2', '68 to 71 °C'),
  ('CCCCc1ncc(CNC(Cc2cccs2)C(=O)O)n1Cc1ccc(C(=O)O)cc1 (stereo not given)', '151 to 152 °C'),
  ('CC(C)C1c2ccc(F)cc2CCC1(O)CCO (stereo not given)', '78 to 80 °C'),
  ('O=c1[nH]c(Nc2cccc(C(F)(F)F)c2)nc2c1ncn2CCO', '347 to 349 °C');

* * *

Result type: melting point

INSERT INTO results (compound, result_type, measured_result) VALUES
  ('CN(Cc1ccc(S(C)(=O)=O)c(S(N)(=O)=O)c1)S(C)(=O)=O', 'melting point', '165 to 169 °C'),
  ('O=C1CCC(c2ccccc2)=NN1c1cc(-c2ccnc(Nc3cccc(Cl)c3)n2)ccn1', 'melting point', '144 to 146 °C'),
  ('CCCCCC(C)C(C)c1cc(O)c2c(c1)OC(C)(C)C1=C2CCC1 (stereo not given)', 'melting point', '154 to 156 °C'),
  ('COc1cccc2sc(C3(c4ccc(S(N)(=O)=O)cc4)C=C(C(F)(F)F)NN3)nc12 (stereo not given)', 'melting point', '276 to 278 °C'),
  ('CC1(C)OC(c2ccc(S(N)(=O)=O)cc2)=C(c2ccc(F)cc2)C1=O', 'melting point', '162 to 163 °C'),
  ('Cc1sc(-c2cn[nH]c2)nc1O', 'melting point', '124 to 125 °C'),
  ('CC(C)(O)CCCCc1ccc(C=Cc2ccc(CO)c(CO)c2)cc1', 'melting point', '102 to 104 °C'),
  ('CC(C)(C)c1ccc(OCC(O)CN2CCC3(CC2)CSC2=C(O3)c3cc(-c4ccccc4)ccc3C(=O)C2=O)cc1 (stereo not given)', 'melting point', '94 to 97 °C'),
  ('CC(CC(=O)NC(Cc1c[nH]c2ccccc12)C(=O)CCc1cc(C(F)(F)F)cc(C(F)(F)F)c1)c1ccccc1 (stereo not given)', 'melting point', '133 to 137 °C'),
  ('CCCCCCCCC1(CCCCCCCC)c2cc(Cl)ccc2-c2ccc(Cl)cc21', 'melting point', '50 to 51 °C'),
  ('CCCCCCCCCCCC(=O)N(CCO)CCNCCO', 'melting point', '94 °C'),
  ('Cc1ccc2c3c(ccc2n1)OC[C@H](CN1CCN(c2ccc4cc(Br)ccc4n2)CC1)O3', 'melting point', '153 to 154 °C'),
  ('ClCCOc1cc(-c2cccs2)n[nH]1', 'melting point', '134 to 138 °C'),
  ('Cc1ccc(-c2ccc3c(c2)C=C(C(=O)Nc2ccc(CNc4cccnc4)cc2)CC3)cc1', 'melting point', '212 to 214 °C'),
  ('Cc1c(SCCCn2c([N+](=O)[O-])cnc2C)ccnc1CSc1ccncc1', 'melting point', '140 to 142 °C');

* * *

Attribute: melting point
Result type: melting point

INSERT INTO assay_data (compound, measured_result) VALUES
  ('COCC#Cc1cc(C(=O)OC)c(N)cc1C(F)(F)F', '107 to 111 °C'),
  ('COc1ccc2c(c1OC)CCC1C(=O)NC(=O)C21 (stereo not drawn)', '217 to 219 °C'),
  ('COC(=O)c1cc(N)c(F)c(-c2ccc(Cl)c(OC)c2F)n1', '204 to 206 °C'),
  ('CCOC(=O)c1cnc2c(cnn2-c2ccccc2)c1N(Cc1cccnc1)S(=O)(=O)c1ccc(OC)cc1', '89 to 91 °C'),
  ('C1=CC(n2c(-c3ccc4c(c3)OCO4)nc3ccccc32)CCC1 (stereo not drawn)', '119 to 120 °C'),
  ('CC[C@@H](c1ccccc1)N(Cc1ccc(C(=O)O)cc1)S(=O)(=O)c1ccc(C(=O)O)cc1', '102 to 104 °C'),
  ('O=S(=O)(Nc1ncnc(Cl)c1Cc1ccc2ccccc2c1)c1ccc(Cl)cc1', '197 to 199 °C'),
  ('CN1C(=O)CC(c2ccc(N)cc2)C1C(O)c1ccc(-c2ccccc2)s1 (stereo not drawn)', '221 to 222 °C'),
  ('COc1ccc(C(=O)NC2CCCCC2)c2c1OCC2CC(=O)O (stereo not drawn)', '246 to 247 °C'),
  ('COn1cc(C(=O)O)c(=O)c2cc3cc(F)c(F)cc3nc21', '325 to 327 °C'),
  ('CCCCOc1ccc(S(=O)(=O)C2(C(=O)O)CCN(Cc3ccc(OC)cc3)CC2)cc1', '173 °C'),
  ('COc1cccc2c1CCN(c1nc(C)[nH]c(=O)c1[N+](=O)[O-])CC2', '> 200 °C'),
  ('O=C1CC(c2cccc(Cl)c2)c2cc(C(=O)c3ccc([N+](=O)[O-])cc3)ccc2N1 (stereo not drawn)', '147 °C'),
  ('CC#CC(C)Oc1cc(N)c(Cl)cc1C(=O)O (stereo not drawn)', '114 to 116 °C'),
  ('COc1ccc(Nc2ncc3c(n2)-c2sc(C)nc2CC3)cn1', '210 to 211 °C'),
  ('CC(=O)CC(=O)c1cccc2[nH]ccc12', '104 to 105 °C'),
  ('COc1cccc(C(=O)N2CCCC3=C2CCc2cc(Cl)ccc23)c1', '133 °C'),
  ('COCCOc1ccc2c(c1)OCC21C(=O)Nc2ccccc21 (stereo not drawn)', '172 to 174 °C');
